# Test system: DFTD cell line T2 (05/2569)
# test_description: cell viability, percent of DMSO control (CellTiter-Glo); higher = more viable cells
# experimental_parameters: 1.5 µM; 72 h
endpoint: cell viability (%)
Give just the number in %; leave the unit off.

COc1cc2ncnc(Nc3cccc(Cl)c3F)c2cc1OC(=O)N1CCN(C)C[C@H]1C [AZD3759] | 48.9
COc1cc2ncnc(Nc3ccc(Cl)cc3F)c2cc1OC | 59.5
CNC(=O)CN1CCC(Oc2cc3c(Nc4cccc(Cl)c4F)ncnc3cc2OC)CC1 [AZD8931 (Sapitinib)] | 27
O=c1c(=NNc2nnn[nH]2)c(=O)c2ccccc12 | 1.91
COCCn1c2c([n+](Cc3cnccn3)c1C)C(=O)c1ccccc1C2=O.[Br-] [YM155] | 4.91
C#Cc1cccc(Nc2ncnc3cc(OCCOC)c(OCCOC)cc23)c1.Cl [Erlotinib hydrochloride] | 56.3
C=CC(=O)N1CCC[C@@H](n2nc(-c3ccc(Oc4ccccc4)cc3)c3c(N)ncnc32)C1 | 29.5
Cc1cc(Nc2ncnc3ccc(NC4=NC(C)(C)CO4)cc23)ccc1Oc1ccn2ncnc2c1 [Irbinitinib(ARRY-380; ONT-380)] | 45.7

# return recorded cell viability for entry Cn1nc(-c2ccccn2)nc2c(=O)n(C)c(=O)nc1-2
84.5

* * *

# Test system: DFTD cell line T1 (06/2887)
# test_description: cell viability, percent of DMSO control (CellTiter-Glo); higher = more viable cells
# experimental_parameters: 4.5 µM; 72 h
Form field: cell viability (one value per entry).
Hey, just the number and the unit after it is fine.

Consider the worked cases shown below.
CNC(=O)CN1CCC(Oc2cc3c(Nc4cccc(Cl)c4F)ncnc3cc2OC)CC1 [AZD8931 (Sapitinib)] | 19.1%
COc1cc2ncnc(Nc3cccc(Cl)c3F)c2cc1OC(=O)N1CCN(C)C[C@H]1C [AZD3759] | 22.6%
CCN1CCN(Cc2ccc(-c3cc4c(N[C@H](C)c5ccccc5)ncnc4[nH]3)cc2)CC1 [AEE788] | 29.4%

As a next step, examine the molecule that follows.
# return recorded cell viability for entry C=CC(=O)Nc1cc2c(Nc3ccc(F)c(Cl)c3)ncnc2cc1OCCCN1CCOCC1 [Canertinib (CI-1033)]
18.2%

* * *

Form field: cell viability (one value per entry).
# Test system: DFTD cell line T4 (07/0192)
# test_description: cell viability, percent of DMSO control (CellTiter-Glo); higher = more viable cells
# experimental_parameters: 13.5 µM; 72 h
Give just the number in %; leave the unit off.

C=CC(=O)N1CCC[C@@H](n2nc(-c3ccc(Oc4ccccc4)cc3)c3c(N)ncnc32)C1 | 12.3
COc1cc2ncnc(Nc3ccc(F)c(Cl)c3)c2cc1NC(=O)/C=C/CN1CCCCC1 | -11.1
COc1cc2ncnc(Nc3cccc(Br)c3)c2cc1OC.Cl | 17.7

# return recorded cell viability for entry CCS(=O)(=O)c1cccc(-c2cc(C(=O)NC3CCN(C)CC3)c(C)c3[nH]c4ncc(C)cc4c23)c1 [TAK901]
-6.14

# return recorded cell viability for entry CNC(=O)CN1CCC(Oc2cc3c(Nc4cccc(Cl)c4F)ncnc3cc2OC)CC1 [AZD8931 (Sapitinib)]
8.86

# return recorded cell viability for entry C=CC(=O)Nc1cc2c(Nc3ccc(F)c(Cl)c3)ncnc2cc1OCCCN1CCOCC1 [Canertinib (CI-1033)]
21

# return recorded cell viability for entry COc1cc2ncnc(Nc3cccc(Cl)c3)c2cc1OC [AG-1478]
32.3

# return recorded cell viability for entry C=CC(=O)Nc1cccc(Nc2nc(Nc3ccc(N4CCN(C(C)=O)CC4)cc3OC)ncc2C(F)(F)F)c1 [Rociletinib (CO-1686, AVL-301)]
11.9

# return recorded cell viability for entry CS(=O)(=O)CCNCc1ccc(-c2ccc3ncnc(Nc4ccc(OCc5cccc(F)c5)c(Cl)c4)c3c2)o1.Cc1ccc(S(=O)(=O)O)cc1
28.7
